meta.source: paper PMC7819943

Target: OsWOX13 (Oryza sativa, UniProt Q5QMM3 1-267)
Sequence: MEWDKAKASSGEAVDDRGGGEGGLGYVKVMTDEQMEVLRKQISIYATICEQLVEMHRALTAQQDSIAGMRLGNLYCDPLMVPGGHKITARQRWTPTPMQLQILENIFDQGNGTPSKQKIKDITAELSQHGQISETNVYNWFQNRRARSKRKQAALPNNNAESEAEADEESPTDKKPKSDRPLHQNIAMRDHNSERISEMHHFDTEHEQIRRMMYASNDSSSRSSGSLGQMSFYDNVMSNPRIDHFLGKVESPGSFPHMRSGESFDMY
Assay: protein-binding microarray (RPBM); PBS, 2% BSA, 51.3 ng/ul salmon testes DNA, 50 uM zinc acetate, 200 nM TF, 25 C, 1 h; high values mean tight binding
Conditions: protein: recombinant; tags: N-terminal polyhistidine and DsRed monomer fusion (pET32a); label: CyDye5-dUTP incorporated in the synthesized complementary strand; 3' TTTTT single-stranded linker to array surface; dsDNA, one strand shown
In all, about 35,000 sequences were measured (“fluorescence intensity (a.u.)”: median about 10,000, highest 2% from about 52,000 on). The full list was thinned out, with the highest values kept by preference.
endpointLabel: binding signal

Recorded binding signal (sequence GGGGATTGGGAGTTTATACAAGGGAATTGATGGTGAGATTCGGAGTCACCTAGTGCAG ): 21000 fluorescence intensity (a.u.)

Per the records, this sequence ( CTCTACAGTAAATCAAACAGTAATCACACTCCAAACAAAACGGAGTCACCTAGTGCAG ) has binding signal equal to 5420 fluorescence intensity (a.u.)

binding signal in this record for TATAAAATTATAGATAATATAACATGTTTGCATGATGTTTCGGAGTCACCTAGTGCAG : 5670 fluorescence intensity (a.u.)

Per the record, AATTCTAATTGGGGAGCATTTAAAGGCTGGGTTTTAGTGGCGGAGTCACCTAGTGCAG has binding signal of 20100 fluorescence intensity (a.u.)

Recorded result, ACTGATTTGTTTTATTGTTTTGATTTTAATCCTCTCAATTCGGAGTCACCTAGTGCAG , binding signal: 38800 fluorescence intensity (a.u.)

Notebook: CACAGACACATTTGGTTAATTACATACCTTGTACACTTCACGGAGTCACCTAGTGCAG , binding signal read as 6260 fluorescence intensity (a.u.)

Measured binding signal, AGGATTAATTAGGCTTAATAAATTCGTCTCGCAGTTTACACGGAGTCACCTAGTGCAG : 22000 fluorescence intensity (a.u.)

Reported binding signal ( CTTTGATTACATCAAGCCACTGAATTATCAGTTATAATCTCGGAGTCACCTAGTGCAG ) = 23100 fluorescence intensity (a.u.)

Sure, the documented binding signal for TTCGTTCATCATCAATCAAAACATGGGACTATAAGGATTTCGGAGTCACCTAGTGCAG is 7300 fluorescence intensity (a.u.)

Reported binding signal for TTATTTGCATTGATTTAATAGGGTTTACTCTTGCTTTGCACGGAGTCACCTAGTGCAG was 7870 fluorescence intensity (a.u.)

Please fill in: binding signal reported for TCATTGATTGATTGGTACTACTACTGCTAGAAGAAAAGGCCGGAGTCACCTAGTGCAG = 55200 fluorescence intensity (a.u.)

The reported value for GAAATAATTGATTGAATCCTATTCTATCCTCTAAAATTCCCGGAGTCACCTAGTGCAG in terms of binding signal is 30900 fluorescence intensity (a.u.)

// binding signal value for GGTATAACCTAAAGTTTATCCGTTTGTAGAGCGAATGTTTCGGAGTCACCTAGTGCAG : 14400 fluorescence intensity (a.u.)

# binding signal of AATGTGTTAGCGTTTAATTTGCGATTGGATTTGTTTCAGGCGGAGTCACCTAGTGCAG = 3560 fluorescence intensity (a.u.)

# binding signal of AGAAATATTCAATCAAGCTACTGCGCACATATATCTTTATCGGAGTCACCTAGTGCAG = 9630 fluorescence intensity (a.u.)

For reference, reported binding signal for ATCTAATCTTGAATTAAACTCACTATCAATTCCCACCATCCGGAGTCACCTAGTGCAG stands at 4380 fluorescence intensity (a.u.)

---

Exercise: state measured binding signal for each of the sequences provided.
Target: OsWOX13 (Oryza sativa, UniProt Q5QMM3 1-267)
Sequence: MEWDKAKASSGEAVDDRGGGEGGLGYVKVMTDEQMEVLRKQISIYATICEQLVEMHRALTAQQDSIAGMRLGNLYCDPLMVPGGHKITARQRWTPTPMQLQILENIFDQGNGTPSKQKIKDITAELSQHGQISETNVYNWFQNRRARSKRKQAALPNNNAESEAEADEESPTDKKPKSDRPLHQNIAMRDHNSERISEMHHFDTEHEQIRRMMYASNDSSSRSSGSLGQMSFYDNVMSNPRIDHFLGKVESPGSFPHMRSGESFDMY
Assay: protein-binding microarray (RPBM); PBS, 2% BSA, 51.3 ng/ul salmon testes DNA, 50 uM zinc acetate, 200 nM TF, 25 C, 1 h; high values mean tight binding
Conditions: protein: recombinant; tags: N-terminal polyhistidine and DsRed monomer fusion (pET32a); label: CyDye5-dUTP incorporated in the synthesized complementary strand; 3' TTTTT single-stranded linker to array surface; dsDNA, one strand shown
In all, about 35,000 sequences were measured (“fluorescence intensity (a.u.)”: median about 10,000, highest 2% from about 52,000 on). Only a selection was taken, and the highest values are over-represented in it overall.

Form field binding signal, entry TTTAACACAAATGAGAACTTGATCGATTCCTCGTATTGTTCGGAGTCACCTAGTGCAG : 3850 fluorescence intensity (a.u.)

Notebook: TTTTGAAATTTCAGATTATTTTGTGTGGTTTTGTAATTTGCGGAGTCACCTAGTGCAG , binding signal read as 4570 fluorescence intensity (a.u.)

Lab note: measured binding signal of GACGCGTCGGTGCTGATTGACTCGACGGCCGGCAACGTGGCGGAGTCACCTAGTGCAG was 22800 fluorescence intensity (a.u.)

CAATGATTGGACTAAAGAAAATGCTAATATTAATGGTATGCGGAGTCACCTAGTGCAG has a reported binding signal of 52300 fluorescence intensity (a.u.)

Sure, the documented binding signal for TCGACTTCTGATTGATGTCAGTAATGGTGTACCAGTGCTGCGGAGTCACCTAGTGCAG is 41200 fluorescence intensity (a.u.)

Measured binding signal of TGTGTTCTTGATTTGTGTTGTGTTTGTAGATCGTAGTTTGCGGAGTCACCTAGTGCAG : 10200 fluorescence intensity (a.u.)

Input TTCTGATTGATGTCAGGAGTGGCGTGCGTACCAGTGCTGTCGGAGTCACCTAGTGCAG . Output binding signal: 58100 fluorescence intensity (a.u.)

What the record says about GAGCAGCAGCTTAATTGGATCATCGAATCTCGCACCGCCACGGAGTCACCTAGTGCAG : binding signal is 4860 fluorescence intensity (a.u.)

Value of measured binding signal for the entry TGAAATTAATTTGATGTGATAGATTTCTAGGTTTTCTTTGCGGAGTCACCTAGTGCAG : 64300 fluorescence intensity (a.u.)

Entry under test: TAGATACGAAAATTAATTGGAATTTTGGATTTGGATGGGACGGAGTCACCTAGTGCAG . Its binding signal was 24500 fluorescence intensity (a.u.)

binding signal reported for this sequence TAAAACTTAATTAATTATACGTTAATATTACCTCGTTTTGCGGAGTCACCTAGTGCAG : 53900 fluorescence intensity (a.u.)

binding signal reading for TTGTTTGATTTGTTAGGGGTGGTAAGAGCAGCCTTGTATTCGGAGTCACCTAGTGCAG : 21000 fluorescence intensity (a.u.)

// binding signal lookup, sequence = ATAATTGGTAAAGATGGATTCAAAATATTATTAATAATTGCGGAGTCACCTAGTGCAG , result: 26200 fluorescence intensity (a.u.)

Value of binding signal reported for the sequence GTTAAACTAATTTGAATTTGTTAGTACAGTTTGCATTTCACGGAGTCACCTAGTGCAG is 25500 fluorescence intensity (a.u.)

---

Target: OsWOX13 (Oryza sativa, UniProt Q5QMM3 1-267)
Sequence: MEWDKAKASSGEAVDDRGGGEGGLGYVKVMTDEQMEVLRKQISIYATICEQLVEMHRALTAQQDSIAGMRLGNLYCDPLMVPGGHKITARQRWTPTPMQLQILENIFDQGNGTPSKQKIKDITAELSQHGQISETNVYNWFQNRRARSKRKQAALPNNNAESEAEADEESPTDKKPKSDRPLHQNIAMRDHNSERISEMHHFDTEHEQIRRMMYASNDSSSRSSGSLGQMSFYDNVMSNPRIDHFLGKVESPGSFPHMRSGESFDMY
Assay: protein-binding microarray (RPBM); PBS, 2% BSA, 51.3 ng/ul salmon testes DNA, 50 uM zinc acetate, 200 nM TF, 25 C, 1 h; high values mean tight binding
Conditions: protein: recombinant; tags: N-terminal polyhistidine and DsRed monomer fusion (pET32a); label: CyDye5-dUTP incorporated in the synthesized complementary strand; 3' TTTTT single-stranded linker to array surface; dsDNA, one strand shown
Whole data set: some 35,000 sequences, median “fluorescence intensity (a.u.)” near 10,000, cut for the highest 2% near 52,000. What follows is part of a selection rich in the highest values, with near analogues and random picks from the rest.
endpointLabel: binding signal

Lab note: TTTCAAATCTCAAATTGAAAGTTTTCAAAATTTTCAAATCCGGAGTCACCTAGTGCAG gave binding signal of 3760 fluorescence intensity (a.u.)

The reported binding signal of the sequence TATGAATGCATTATGATTACTATTTGCTAATCATAAGTGGCGGAGTCACCTAGTGCAG was 11000 fluorescence intensity (a.u.)

binding signal in this record for AATTGAAATAATTGGAAATTTTCATATTTATATATTAAACCGGAGTCACCTAGTGCAG : 5800 fluorescence intensity (a.u.)

Note to self: binding signal recorded for CTGATGATTCACCCATGATCGATTGCTCGATCCGTTTAAGCGGAGTCACCTAGTGCAG was 3710 fluorescence intensity (a.u.)

Record summary for GGTCGATCCATCGATTGATGGATCAATAATGCAAGCAAGCCGGAGTCACCTAGTGCAG : reported binding signal = 5030 fluorescence intensity (a.u.)
